assay: Activity against metalloenzyme Ribonucleoside diphosphate reductase was evaluated from a subcutaneously growing murine tumor (sarcoma 180) implanted in B6D2F3 male mice at 0.01 conc
Quick list: inhibition per entry.
I only need the number, in %, no unit after it.

// solved cases for inhibition follow
1) Cc1c(O)c(/C=N/NC(=O)c2cc[n+](C)cc2)c(CO)c[n+]1C ... 0
2) Oc1ccc(Br)cc1/C=N/Nc1ccccn1 ... 0
3) Cc1ncc(CO)c(/C=N/Nc2nc(Cl)c(Cl)c(Cl)c2Cl)c1O ... 25
4) CCOC(=O)C[n+]1ccc(C(=O)N/N=C/c2cc(Br)ccc2O)cc1 ... 0

Incoming: Look at this molecule and give its reported inhibition. COc1ccc(COC(=O)N/N=C/c2c(CO)cnc(C)c2O)cc1
Outgoing: 0

Incoming: Entry under review: C[n+]1ccc(C(=O)N/N=C/c2cc(Cl)cc(Cl)c2O)cc1 . Reported inhibition?
Outgoing: 0

Incoming: What value of inhibition has been reported for the following molecule? Cc1ncc(CO)c(/C=N/Nc2ccccn2)c1O
Outgoing: 72

Incoming: Which inhibition is listed for Cc1ncc(CO)c(/C=N/Nc2ncc(Cl)cc2Cl)c1O ?
Outgoing: 79

Incoming: For the molecule CC(=O)OCc1cnc(C)c(OC(C)=O)c1/C=N/Nc1ncccn1 , what inhibition is on record?
Outgoing: 24

Incoming: // returns reported inhibition for input CCOC(=O)C[n+]1cc(CO)c(/C=N/Nc2ncccn2)c(O)c1C
Outgoing: 79

Incoming: Recorded inhibition of Cc1c(O)c(/C=N/N=c2\ccccn2C)c(CO)c[n+]1C , please.
Outgoing: 0

Incoming: Returns the measured inhibition for the input molecule. Input: Cc1ncc(CO)c(/C=N/NC(=O)c2cc[n+](C)cc2)c1O
Outgoing: 0

The measured values listed here are drawn from ChEMBL document CHEMBL1132415.
